experimental-system: kinase enzymes (Homo sapiens, UniProt P42336)
Sequence (P42336 whole entry): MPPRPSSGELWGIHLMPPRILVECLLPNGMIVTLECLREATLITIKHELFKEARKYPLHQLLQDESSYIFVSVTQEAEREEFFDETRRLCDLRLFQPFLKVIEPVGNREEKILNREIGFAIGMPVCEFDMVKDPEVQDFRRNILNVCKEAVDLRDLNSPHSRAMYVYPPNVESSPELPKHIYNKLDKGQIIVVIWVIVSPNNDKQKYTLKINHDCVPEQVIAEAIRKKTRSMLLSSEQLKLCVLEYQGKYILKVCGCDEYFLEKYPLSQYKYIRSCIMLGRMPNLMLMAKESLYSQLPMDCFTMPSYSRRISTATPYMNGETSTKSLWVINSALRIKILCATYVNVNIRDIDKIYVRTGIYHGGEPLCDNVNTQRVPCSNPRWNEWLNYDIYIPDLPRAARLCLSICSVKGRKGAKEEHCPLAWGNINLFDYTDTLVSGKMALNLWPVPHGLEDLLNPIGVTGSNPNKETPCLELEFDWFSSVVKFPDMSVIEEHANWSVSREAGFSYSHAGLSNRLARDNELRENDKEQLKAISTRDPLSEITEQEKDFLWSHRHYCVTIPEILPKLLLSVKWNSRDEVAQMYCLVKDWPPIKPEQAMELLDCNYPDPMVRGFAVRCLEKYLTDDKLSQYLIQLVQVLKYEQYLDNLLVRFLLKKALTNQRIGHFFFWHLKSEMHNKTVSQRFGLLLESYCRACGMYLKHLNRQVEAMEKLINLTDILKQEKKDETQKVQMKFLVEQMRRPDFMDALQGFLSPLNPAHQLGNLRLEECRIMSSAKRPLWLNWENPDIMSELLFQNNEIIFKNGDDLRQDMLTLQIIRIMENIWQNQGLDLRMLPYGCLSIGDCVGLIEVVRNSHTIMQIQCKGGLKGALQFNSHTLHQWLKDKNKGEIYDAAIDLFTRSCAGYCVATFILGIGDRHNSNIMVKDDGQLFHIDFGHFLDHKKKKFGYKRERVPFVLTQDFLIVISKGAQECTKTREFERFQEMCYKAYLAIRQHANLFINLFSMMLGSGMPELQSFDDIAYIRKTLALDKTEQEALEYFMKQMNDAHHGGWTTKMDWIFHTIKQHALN
pKd: −log10 of the molar value.
Could you label it Satisfied if measured pKd is 6 or higher, and Not satisfied otherwise?

molecule="CC(Oc1ccc(F)c(F)c1)c1cc(C(=O)N2CCN3CCC[C@H]3C2)cc2ncc(N3CCOCC3)nc12 (single isomer, unassigned) [Compound 369b]" experimental_system="kinase enzymes (Homo sapiens, UniProt P42336)" classification="Not satisfied"
molecule="CNCCNC(=O)c1cc(C2CCCN2c2cc(F)cc(F)c2)c2nc(N3CCOCC3)cnc2c1 (stereo not shown)" experimental_system="kinase enzymes (Homo sapiens, UniProt P42336)" classification=Satisfied
molecule="CNCCN(C)C(=O)c1cc(C(C)Nc2cc(F)c(C(F)(F)F)c(F)c2)c2nc(N3CCOCC3)cnc2c1 (stereo not shown)" experimental_system="kinase enzymes (Homo sapiens, UniProt P42336)" classification="Not satisfied"
molecule="CC(Nc1ccc(F)c(F)c1)c1cc(C(=O)NCC2CCCN2)cc2ncc(N3CCOCC3)nc12 (single isomer, unassigned) [Compound 329b]" experimental_system="kinase enzymes (Homo sapiens, UniProt P42336)" classification="Not satisfied"
molecule="CC(Nc1ccc(F)c(F)c1)c1cc(C(=O)N2CCC[C@H](O)C2)cc2ncc(N3CCOCC3)nc12 (stereo partly shown) [Compound 302]" experimental_system="kinase enzymes (Homo sapiens, UniProt P42336)" classification="Not satisfied"
molecule="CC(C)NCCNC(=O)c1cc(C(C)Oc2cccc(F)c2)c2nc(N3CCOCC3)cnc2c1 (single isomer, unassigned) [Compound 314b]" experimental_system="kinase enzymes (Homo sapiens, UniProt P42336)" classification="Not satisfied"
molecule="COc1cccc(N2CCCC2c2cc(C(=O)N(C)C)cc3ncc(N4CCOCC4)nc23)c1 (stereo not shown)" experimental_system="kinase enzymes (Homo sapiens, UniProt P42336)" classification=Satisfied
molecule="CNCCOCCN(C)C(=O)c1cc(C(C)Nc2cc(F)c(F)c(F)c2)c2nc(N3CCOCC3)cnc2c1 (single isomer, unassigned) [Compound 315b]" experimental_system="kinase enzymes (Homo sapiens, UniProt P42336)" classification="Not satisfied"
molecule="CC(C)NCCNC(=O)c1cc(C(C)Nc2ccc(Cl)c(F)c2)c2nc(N3CCOCC3)cnc2c1 (single isomer, unassigned) [Compound 312a]" experimental_system="kinase enzymes (Homo sapiens, UniProt P42336)" classification="Not satisfied"
molecule="CC(Oc1ccc(F)c(F)c1)c1cc(C(=O)N2CC[C@@H](N(C)C)C2)cc2ncc(N3CCOCC3)nc12 (single isomer, unassigned) [Compound 298b]" experimental_system="kinase enzymes (Homo sapiens, UniProt P42336)" classification="Not satisfied"
molecule="CC(Oc1ccc(F)c(F)c1)c1cc(C(=O)N2CC[C@H](N(C)C)C2)cc2ncc(N3CCOCC3)nc12 (single isomer, unassigned) [Compound 363b]" experimental_system="kinase enzymes (Homo sapiens, UniProt P42336)" classification="Not satisfied"
molecule="CC(Nc1cc(F)cc(F)c1)c1cc(C(=O)NC[C@H](C)O)cc2ncc(N3CCOCC3)nc12 (single isomer, unassigned) [Compound 246b]" experimental_system="kinase enzymes (Homo sapiens, UniProt P42336)" classification="Not satisfied"

* * *

experimental-system: UniProt:O00329
Sequence (O00329 1-1044): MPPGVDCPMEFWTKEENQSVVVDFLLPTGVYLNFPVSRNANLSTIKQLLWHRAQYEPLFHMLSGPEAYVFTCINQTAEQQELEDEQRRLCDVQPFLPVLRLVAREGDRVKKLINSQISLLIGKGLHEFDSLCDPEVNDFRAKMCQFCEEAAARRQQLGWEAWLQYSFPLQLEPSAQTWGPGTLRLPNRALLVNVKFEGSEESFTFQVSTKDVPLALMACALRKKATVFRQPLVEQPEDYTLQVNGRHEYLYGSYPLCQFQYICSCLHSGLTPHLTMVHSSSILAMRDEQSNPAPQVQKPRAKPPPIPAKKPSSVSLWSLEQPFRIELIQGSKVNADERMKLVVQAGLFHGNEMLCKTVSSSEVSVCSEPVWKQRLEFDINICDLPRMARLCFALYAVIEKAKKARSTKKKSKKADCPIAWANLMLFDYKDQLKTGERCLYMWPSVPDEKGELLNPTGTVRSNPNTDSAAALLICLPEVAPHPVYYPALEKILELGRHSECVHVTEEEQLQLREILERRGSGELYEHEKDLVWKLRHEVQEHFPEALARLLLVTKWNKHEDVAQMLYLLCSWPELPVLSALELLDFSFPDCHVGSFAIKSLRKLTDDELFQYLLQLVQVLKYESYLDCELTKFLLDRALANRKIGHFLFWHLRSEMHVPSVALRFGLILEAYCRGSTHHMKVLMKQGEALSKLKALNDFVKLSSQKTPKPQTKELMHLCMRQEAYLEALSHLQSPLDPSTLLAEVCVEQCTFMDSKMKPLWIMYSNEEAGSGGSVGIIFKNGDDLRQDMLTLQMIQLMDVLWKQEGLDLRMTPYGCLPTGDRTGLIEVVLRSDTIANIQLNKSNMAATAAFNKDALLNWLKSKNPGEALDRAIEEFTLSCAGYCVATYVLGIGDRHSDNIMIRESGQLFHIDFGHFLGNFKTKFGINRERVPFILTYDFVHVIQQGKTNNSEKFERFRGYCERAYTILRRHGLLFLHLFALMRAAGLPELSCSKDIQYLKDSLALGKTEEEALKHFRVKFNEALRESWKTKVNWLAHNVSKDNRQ
pKd: −log10 of the molar value.
Item-by-item account of pKd
property: pKd

molecule="CN[C@H]1CCN(C(=O)c2cc(C(C)Oc3cc(F)c(F)c(F)c3)c3nc(N4CCOCC4)cnc3c2)C1 (single isomer, unassigned) [Compound 405a]" experimental_system=UniProt:O00329 recorded_result=5.13
molecule="CC(Oc1ccc(F)c(F)c1)c1cc(C(=O)N2CCN3CCC[C@H]3C2)cc2ncc(N3CCOCC3)nc12 (single isomer, unassigned) [Compound 369b]" experimental_system=UniProt:O00329 recorded_result=4.54
molecule="CC(Nc1ccc(F)c(F)c1)c1cc(C(=O)N2CCC[C@H](O)C2)cc2ncc(N3CCOCC3)nc12 (single isomer, unassigned) [Compound 302b]" experimental_system=UniProt:O00329 recorded_result=6.73
molecule="CNCCN(C)C(=O)c1cc(C(C)Nc2cc(F)c(F)c(F)c2)c2nc(N3CCOCC3)cnc2c1 (single isomer, unassigned) [Compound 335a]" experimental_system=UniProt:O00329 recorded_result=7.48
molecule="CC(Nc1ccc(F)c(F)c1)c1cc(C(=O)N2CC[C@@H](O)C2)cc2ncc(N3CCOCC3)nc12 (stereo partly drawn) [Compound 300]" experimental_system=UniProt:O00329 recorded_result=6.29
molecule=Cc1c(F)cccc1CN(C)c1cc(C(=O)N(C)CCNC(C)C)cc2ncc(N3CCOCC3)nc12 experimental_system=UniProt:O00329 recorded_result=6.16

* * *

Item-by-item account of Kd
experimental-system: kinase enzymes (Homo sapiens)
property: Kd (µM)

compound="CC(Nc1ccc(F)c(F)c1)c1cc(C(=O)N2CCN3CCC[C@@H]3C2)cc2ncc(N3CCOCC3)nc12 (single isomer, unassigned) [Compound 347b]" operator_symbol=> recorded_result=30.2
compound="CC(Oc1cccc(F)c1)c1cc(C(=O)NCCO)cc2ncc(N3CCOCC3)nc12 (single isomer, unassigned) [Compound 334b]" operator_symbol== recorded_result=17.4
compound="CC(Oc1cc(F)cc(F)c1)c1cc(C(=O)N(C)CCO)cc2ncc(N3CCOCC3)nc12 (racemic)" operator_symbol=> recorded_result=30.2
compound="CC(C)NCCNC(=O)c1cc(C(C)Nc2cccc(F)c2)c2nc(N3CCOCC3)cnc2c1 (single isomer, unassigned)" operator_symbol=> recorded_result=30.2
compound="CC(Nc1cccc(Br)c1)c1cc(C(=O)N2CCOCC2)cc2ncc(N3CCOCC3)nc12 (stereo not drawn)" operator_symbol== recorded_result=8.13
compound="CC(Oc1cc(F)cc(F)c1)c1cc(-c2cnc[nH]2)cc2ncc(N3CCOCC3)nc12 (single isomer, unassigned)" operator_symbol== recorded_result=20

* * *

experimental-system: PI3Kβ (Homo sapiens)
Construct: purchased DiscoveRx Corporation, San Diego (contract service, KINOMEscan)
Sequence (P42338 whole entry): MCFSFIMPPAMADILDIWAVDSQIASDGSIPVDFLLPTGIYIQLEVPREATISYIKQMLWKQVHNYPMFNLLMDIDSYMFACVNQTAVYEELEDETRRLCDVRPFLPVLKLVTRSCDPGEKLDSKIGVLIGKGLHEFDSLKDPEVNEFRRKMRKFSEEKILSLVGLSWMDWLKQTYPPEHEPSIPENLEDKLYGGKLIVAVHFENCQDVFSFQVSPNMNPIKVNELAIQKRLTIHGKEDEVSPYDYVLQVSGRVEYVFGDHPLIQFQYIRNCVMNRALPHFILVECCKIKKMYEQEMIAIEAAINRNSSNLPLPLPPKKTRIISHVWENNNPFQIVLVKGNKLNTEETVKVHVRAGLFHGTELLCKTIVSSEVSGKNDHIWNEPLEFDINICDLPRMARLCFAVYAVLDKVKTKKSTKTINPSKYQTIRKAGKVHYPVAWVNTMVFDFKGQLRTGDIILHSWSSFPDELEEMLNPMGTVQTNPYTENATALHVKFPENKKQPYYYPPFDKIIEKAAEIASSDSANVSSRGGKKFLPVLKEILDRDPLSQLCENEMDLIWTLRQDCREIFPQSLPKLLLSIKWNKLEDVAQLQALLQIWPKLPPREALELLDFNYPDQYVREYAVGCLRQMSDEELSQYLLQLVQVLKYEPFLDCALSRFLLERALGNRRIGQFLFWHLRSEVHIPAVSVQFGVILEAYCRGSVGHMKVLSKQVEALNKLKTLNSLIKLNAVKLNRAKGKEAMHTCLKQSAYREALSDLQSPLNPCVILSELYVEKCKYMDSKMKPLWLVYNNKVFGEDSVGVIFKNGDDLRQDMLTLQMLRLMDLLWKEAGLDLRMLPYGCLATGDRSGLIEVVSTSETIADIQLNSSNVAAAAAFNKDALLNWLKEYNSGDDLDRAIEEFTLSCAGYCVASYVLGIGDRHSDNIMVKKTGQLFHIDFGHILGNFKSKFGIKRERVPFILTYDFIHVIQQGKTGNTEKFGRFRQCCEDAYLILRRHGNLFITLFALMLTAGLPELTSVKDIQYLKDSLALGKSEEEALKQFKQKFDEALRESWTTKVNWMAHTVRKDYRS
measurement-description: Enzyme binding assay (KINOMEscan, DiscoveRx)
condition-notes: PIK3Cβ_h, read-out: Kd PIK3Cβ_h
pKd: −log10 of the molar value.
property: pKd

molecule="CC(Nc1cccc(F)c1)c1cc(CO)cc2ncc(N3CCOCC3)nc12 (stereo not shown)" recorded_result=9.00
molecule="COC(=O)c1cc(C(C)Oc2ccc(F)c(F)c2)c2nc(N3CCOCC3)cnc2c1 (stereo not shown)" recorded_result=6.50
molecule="CC(Nc1cc(F)cc(F)c1)c1cc(CN2CCn3nccc3C2)cc2ncc(N3CCOCC3)nc12 (single isomer, unassigned) [Compound 222]" recorded_result=6.12
molecule="CC(Nc1cc(F)cc(F)c1)c1cc(C(=O)O)cc2ncc(N3CCOCC3)nc12 (single isomer, unassigned) [Compound 83b]" recorded_result=9.00
molecule="CC(c1cc(C(=O)O)cc2ncc(N3CCOCC3)nc12)N(C)c1cccc(F)c1 (stereo not shown)" recorded_result=7.33
molecule="CN1CCN(C(=O)c2cc(C3CCCN3c3cc(F)cc(F)c3)c3nc(N4CCOCC4)cnc3c2)CC1 (single isomer, unassigned) [Compound 57]" recorded_result=9.40
molecule="CNCCNC(=O)c1cc(C(C)Oc2cc(F)cc(F)c2)c2nc(N3CCOCC3)cnc2c1 (single isomer, unassigned) [Compound 166]" recorded_result=7.72
